Measurement Target: Bombyx mori EcR (VP16 fusion, CVBE switch construct) (Bombyx mori, UniProt P49881)
Sequence (P49881 86-606): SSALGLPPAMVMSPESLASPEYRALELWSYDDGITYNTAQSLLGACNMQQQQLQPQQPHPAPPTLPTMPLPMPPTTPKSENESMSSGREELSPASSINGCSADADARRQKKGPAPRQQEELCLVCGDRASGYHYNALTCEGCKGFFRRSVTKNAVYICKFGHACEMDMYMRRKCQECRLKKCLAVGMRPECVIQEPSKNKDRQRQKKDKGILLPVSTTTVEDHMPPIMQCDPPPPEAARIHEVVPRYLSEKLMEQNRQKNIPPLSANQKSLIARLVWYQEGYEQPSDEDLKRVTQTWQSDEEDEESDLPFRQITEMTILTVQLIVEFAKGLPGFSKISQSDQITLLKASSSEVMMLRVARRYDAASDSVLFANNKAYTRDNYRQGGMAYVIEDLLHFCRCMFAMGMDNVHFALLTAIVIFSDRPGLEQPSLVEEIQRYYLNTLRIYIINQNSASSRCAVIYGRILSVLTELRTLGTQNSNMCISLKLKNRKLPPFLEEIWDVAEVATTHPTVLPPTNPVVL
Sequence (P19793 whole entry partner, the tested form may be a part): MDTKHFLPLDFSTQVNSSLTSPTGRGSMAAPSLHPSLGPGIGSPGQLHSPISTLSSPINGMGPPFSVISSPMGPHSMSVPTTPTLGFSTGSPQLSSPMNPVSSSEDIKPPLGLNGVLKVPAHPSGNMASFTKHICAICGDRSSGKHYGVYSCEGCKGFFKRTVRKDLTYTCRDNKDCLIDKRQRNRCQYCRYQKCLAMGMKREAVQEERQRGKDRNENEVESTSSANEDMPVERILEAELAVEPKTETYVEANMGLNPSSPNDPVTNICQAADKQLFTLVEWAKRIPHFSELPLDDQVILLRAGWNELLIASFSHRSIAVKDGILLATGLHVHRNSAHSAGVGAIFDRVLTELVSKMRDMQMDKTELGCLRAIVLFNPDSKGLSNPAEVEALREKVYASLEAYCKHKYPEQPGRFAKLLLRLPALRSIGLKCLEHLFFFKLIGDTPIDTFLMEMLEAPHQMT
Protocol Summary: Z3 Assay (HEK-293 cells with CVBE and 6XEcRE LacZ, β-galactosidase reporter)
Condition Parameters: read-out: Z3 assay EC50; HEK-293 Z3 cells, β-galactosidase reporter; average of two wells
Protocol: Dr. F. Gage provided a population of stably transformed cells containing CVBE and 6XEcRE as described in Suhr, S. T., Gil, E. B., Senut M. C., Gage, F. H. (1998) Proc. Natl. Acad. Sci. USA 95, 7999-804. […] Dilution cloning was used to isolate individual clones. […] Individual clones were evaluated based on their response in the presence and absence of test ligands. […]
pEC50: −log10 of the molar value.
Is pEC50 at least 6? Then MET. If not, NOT MET.

Field: example entries. Status: answers known.
[
  {
    "Compound": "CCc1c(OC)cccc1C(=O)NN(C(=O)c1cc(C)cc(C)c1)C(C)(C)COC(C)=O",
    "Label Class": "NOT MET"
  },
  {
    "Compound": "COc1cc(OC)cc(C(=O)N(NC(=O)c2cccc(C)c2C)C(C)(C)C)c1",
    "Label Class": "NOT MET"
  },
  {
    "Compound": "CCCCC(CC)N(NC(=O)c1cccc(C)c1C)C(=O)c1ccccc1 (racemic)",
    "Label Class": "MET"
  },
  {
    "Compound": "COc1cccc(C(=O)NN(C(=O)c2cc(C)cc(C)c2)C(C)(C)C)c1CF",
    "Label Class": "NOT MET"
  }
]

Enquiry: Is reported pEC50 greater than or equal to 6 here: COc1ccc(OC)c(C(=O)N(NC(=O)c2cccc(C)c2C)C(C)(C)C)c1
Return: NOT MET

Enquiry: Next entry: CC(C)(C)N(NC(=O)c1c(F)ccc(F)c1F)C(=O)c1ccc(F)cc1Cl
Return: NOT MET
